Origin of the recorded values: ChEMBL document CHEMBL5291721

- Assay System: Alpha-2B adrenergic receptor (Homo sapiens, UniProt P18089); also: assay procedure not described here
- Sequence (P18089 whole entry): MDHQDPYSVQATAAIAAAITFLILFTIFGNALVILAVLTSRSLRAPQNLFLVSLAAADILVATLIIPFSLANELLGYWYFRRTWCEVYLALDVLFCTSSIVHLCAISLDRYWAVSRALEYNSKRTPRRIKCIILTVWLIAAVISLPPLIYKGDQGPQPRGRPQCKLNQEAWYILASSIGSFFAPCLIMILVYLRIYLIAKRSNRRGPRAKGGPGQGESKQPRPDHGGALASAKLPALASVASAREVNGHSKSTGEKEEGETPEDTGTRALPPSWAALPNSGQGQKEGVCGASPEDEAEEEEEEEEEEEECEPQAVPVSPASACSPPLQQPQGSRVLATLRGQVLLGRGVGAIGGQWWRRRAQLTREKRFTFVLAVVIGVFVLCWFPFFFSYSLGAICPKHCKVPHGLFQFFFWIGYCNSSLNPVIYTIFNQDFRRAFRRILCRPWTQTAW
Assign AC50 to each entry below.

Quick check: AC50 of `Cc1cnc(Nc2ccc(OCCN3CCCC3)cc2)nc1Nc1cccc(S(=O)(=O)NC(C)(C)C)c1` ? > 10 µM

Quick check: AC50 of CC1NCCOC1c1ccccc1 (stereo not given) ? > 10 µM

Quick check: AC50 of C[C@@H](O)[C@H]1C(=O)N2C(C(=O)O)=C(SCCN=CN)C[C@H]12 [IMIPENEM ANHYDROUS] ? > 300 µM

Quick check: AC50 of CCC(=O)c1ccc2c(c1)N(CC(C)N(C)C)c1ccccc1S2 (stereo not given) ? 0.32 µM

Quick check: AC50 of `CC(C)(N)Cc1ccccc1` ? > 10 µM

Quick check: AC50 of `O=C(O)[C@H]1/C(=C/CO)O[C@@H]2CC(=O)N21` ? > 30 µM

Quick check: AC50 of `Cc1ccc(O)c([C@H](CCN(C(C)C)C(C)C)c2ccccc2)c1` ? > 10 µM

Quick check: AC50 of `CCN(CC)CCCN(c1ccccc1)C1Cc2ccccc2C1` ? > 30 µM

Quick check: AC50 of `C[C@@H](Cc1ccccc1)N(C)Cc1ccccc1` ? 2.8 µM

Quick check: AC50 of `Cn1cnc2c(F)c(Nc3ccc(Br)cc3F)c(C(=O)NOCCO)cc21` ? > 30 µM
